- ASSAY NAME: self-splicing fitness, log relative to wild type (ln ratio); higher = more splicing; Tetrahymena group I intron in knt gene, E. coli kanamycin selection, DiMSum; sequences stand for … in CUCUCU…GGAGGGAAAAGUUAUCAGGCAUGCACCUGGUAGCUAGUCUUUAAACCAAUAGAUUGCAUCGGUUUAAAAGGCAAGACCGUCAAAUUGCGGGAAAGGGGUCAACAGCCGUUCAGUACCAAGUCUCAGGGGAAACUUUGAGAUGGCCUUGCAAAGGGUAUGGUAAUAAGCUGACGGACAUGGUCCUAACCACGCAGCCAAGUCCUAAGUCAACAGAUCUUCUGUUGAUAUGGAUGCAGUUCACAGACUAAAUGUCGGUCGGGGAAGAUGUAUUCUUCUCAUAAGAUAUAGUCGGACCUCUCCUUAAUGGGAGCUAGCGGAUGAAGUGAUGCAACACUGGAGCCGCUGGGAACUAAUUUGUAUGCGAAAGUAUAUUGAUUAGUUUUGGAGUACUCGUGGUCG;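 note: selection with 25 µg/mL kanamycin versus none on LB agar overnight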
- CONDITION SET: 30 °C
Use yes (1) when the recorded self-splicing fitness (ln) is no lower than -3; use no (0) when it is lower.

chain_sequence=UUUAAGCAAUAUUACGGAAA assigned_category="yes (1)"
chain_sequence=AACUAGCAAUAUUACGACAC assigned_category="yes (1)"
chain_sequence=CGCCAGCAAUAUUACGAAUA assigned_category="no (0)"
chain_sequence=GUGUAGCAAUAUUACGGCCU assigned_category="yes (1)"
chain_sequence=GGACAGCAAUAUUACGCGAC assigned_category="yes (1)"
chain_sequence=UUGAAGCAAUAUUACGUGCC assigned_category="yes (1)"
chain_sequence=UGGCAGCAAUAUUACGUUCG assigned_category="yes (1)"
chain_sequence=CGUUAGCAAUAUUACGCUGU assigned_category="yes (1)"
chain_sequence=GGGCAGCAAUAUUACGCGAU assigned_category="yes (1)"
chain_sequence=UGAUAGCAAUAUUACGAAAU assigned_category="yes (1)"
chain_sequence=GGAAAGCAAUAUUACGUCAA assigned_category="yes (1)"
chain_sequence=UGAAAGCAAUAUUACGCGCG assigned_category="yes (1)"
chain_sequence=UGAGAGCAAUAUUACGCUAC assigned_category="yes (1)"
chain_sequence=GUAUAGCAAUAUUACGCACA assigned_category="yes (1)"
chain_sequence=GUAAAGCAAUAUUACGCCGC assigned_category="yes (1)"
chain_sequence=GGGCAGCAAUAUUACGUACU assigned_category="yes (1)"
chain_sequence=CACGAGCAAUAUUACGGCUU assigned_category="no (0)"
chain_sequence=ACUAAGCAAUAUUACGUGAG assigned_category="yes (1)"
chain_sequence=UCUGAGCAAUAUUACGGAGU assigned_category="yes (1)"
chain_sequence=UCACAGCAAUAUUACGCCAA assigned_category="no (0)"
chain_sequence=GGAGAGCAAUAUUACGUGUA assigned_category="yes (1)"
chain_sequence=UGAUAGCAAUAUUACGUCUA assigned_category="yes (1)"
chain_sequence=GGAUAGCAAUAUUACGGCCG assigned_category="yes (1)"
chain_sequence=GUGAAGCAAUAUUACGUAGU assigned_category="yes (1)"
chain_sequence=ACCCAGCAAUAUUACGUUAC assigned_category="no (0)"
chain_sequence=CUCCAGCAAUAUUACGGACG assigned_category="yes (1)"
chain_sequence=CGGAAGCAAUAUUACGGGCA assigned_category="yes (1)"
chain_sequence=AGGCAGCAAUAUUACGAUGA assigned_category="yes (1)"
chain_sequence=UGGAAGCAAUAUUACGCCUU assigned_category="yes (1)"
chain_sequence=AAACAGCAAUAUUACGUGUA assigned_category="yes (1)"
chain_sequence=UGGUAGCAAUAUUACGGAAG assigned_category="yes (1)"
chain_sequence=GCAAAGCAAUAUUACGUGUU assigned_category="yes (1)"
chain_sequence=GGCGAGCAAUAUUACGCUAG assigned_category="no (0)"
chain_sequence=AUACAGCAAUAUUACGACAC assigned_category="yes (1)"
chain_sequence=CCGAAGCAAUAUUACGUACC assigned_category="no (0)"
chain_sequence=CUGCAGCAAUAUUACGUCCU assigned_category="no (0)"
chain_sequence=UGCAAGCAAUAUUACGGAGA assigned_category="yes (1)"
chain_sequence=AUAGAGCAAUAUUACGAGUU assigned_category="yes (1)"
chain_sequence=CCACAGCAAUAUUACGAUUC assigned_category="no (0)"
chain_sequence=UGGAAGCAAUAUUACGCGGG assigned_category="no (0)"
chain_sequence=CCAAAGCAAUAUUACGCGUC assigned_category="no (0)"
chain_sequence=AGGAAGCAAUAUUACGCGAA assigned_category="yes (1)"
chain_sequence=GCCUAGCAAUAUUACGUACG assigned_category="yes (1)"
chain_sequence=AACAAGCAAUAUUACGUUAC assigned_category="no (0)"
chain_sequence=UCGAAGCAAUAUUACGUUCU assigned_category="yes (1)"
chain_sequence=ACGAAGCAAUAUUACGAUGA assigned_category="yes (1)"
chain_sequence=CUCAAGCAAUAUUACGAGAA assigned_category="yes (1)"
chain_sequence=GAACAGCAAUAUUACGCAUC assigned_category="yes (1)"
chain_sequence=AUCAAGCAAUAUUACGCGAU assigned_category="no (0)"
chain_sequence=CUAGAGCAAUAUUACGUACG assigned_category="yes (1)"
chain_sequence=CCUCAGCAAUAUUACGUGAA assigned_category="no (0)"
